experiment: Henry solubility constant Hcp at 296 K (mol/(m3 Pa)); conditions: reference: Miller and Stuart (2000)
The threshold is inclusive: Henry solubility constant Hcp at 296 K of exactly 0.004 counts as true (1); values below receive false (0).

[[record]]
molecule_smiles = "CCOC(C)(C)C"
group = "true (1)"

[[record]]
molecule_smiles = "CCCCOCC"
group = "true (1)"

[[record]]
molecule_smiles = "CCC(C)(C)OC"
group = "true (1)"

[[record]]
molecule_smiles = "CC(C)OC(C)C"
group = "true (1)"

[[record]]
molecule_smiles = "CCc1ccccc1"
group = "false (0)"


Item Cc1ccccc1 with Henry solubility constant Hcp at 296 K of 0.004 or above?
false (0)

Record: c1ccccc1
false (0)

* * *

test: Henry solubility constant Hcp at 298.15 K (mol/(m3 Pa)); settings: reference: Shunthirasingham et al. (2013)
Outcome label depends on Henry solubility constant Hcp relative to 0.2: at/above gives MET, below gives NOT MET.

[[record]]
molecule_smiles = "CCCCCCO"
group = "MET"


Proceed to the following item.
Textbook exercise: given the entry CCCCCCCCO , state whether its Henry solubility constant Hcp is greater than or equal to 0.2.
MET

* * *

experiment: Henry solubility constant Hcp at 298.15 K (mol/(m3 Pa)); details: reference: Dohányosová et al. (2004)
Please provide measured Henry solubility constant Hcp for the entries that follow.

Observe how each entry below is paired with its result.
[[record]]
molecule = "C[C@@H]1CCCC[C@H]1C (relative stereo) [trans-1,2-dimethylcyclohexane]"
assay_result = "1.6e-05"

[[record]]
molecule = "C1=C\\CCCCCC/1"
assay_result = 0.00021

[[record]]
molecule = "CC(C)CCC(C)C"
assay_result = "2.4e-06"

[[record]]
molecule = "C[C@@H]1CCCC[C@@H]1C [cis-1,2-dimethylcyclohexane]"
assay_result = "2.7e-05"


Each molecule below has a reported value. Please supply its Henry solubility constant Hcp.
1. CCC1CCCCC1
2. C1CCCCCCC1

1. 2e-05
2. 6.9e-05

* * *

Kindly supply the reported Henry solubility constant Hcp values for the records listed here.
assay: Henry solubility constant Hcp at 298.15 K (mol/(m3 Pa)); settings: reference: Park et al. (1997)
Numbers only.

Here's what some known entries look like.
[[record]]
compound = "CCCCCCC [heptane]"
assay_result = "5.5e-06"

[[record]]
compound = "Cc1ccc(C)cc1 [1,4-dimethylbenzene]"
assay_result = 0.00098


Record Henry solubility constant Hcp per entry; entries follow.
1. ClC(Cl)=C(Cl)Cl [tetrachloroethene]
2. CCC(C)(C)OC [2-methoxy-2-methylbutane]
3. c1ccccc1 [benzene]
4. ClC(Cl)(Cl)Cl [tetrachloromethane]
5. CCCCCCCCC [nonane]
6. Clc1ccccc1 [chlorobenzene]
7. CCCCCCCC [octane]

[0.00055, 0.007, 0.0014, 0.00039, "1.9e-06", 0.0019, "3.3e-06"]

For every listed record, write down its Henry solubility constant Hcp.
1. Cc1ccccc1 [methylbenzene]
2. CCCCCC [hexane]

0.0013
7.4e-06

// input: 2 compounds below; output: Henry solubility constant Hcp for each
1. ClCCl [dichloromethane]
2. ClC=C(Cl)Cl [trichloroethene]

[0.0043, 0.00088]
